src = paper PMC13376213

# experimentalSystem: T1, CYLD CAP-Gly1 domain, GST-tagged, Q9NQC7
# T1 chain: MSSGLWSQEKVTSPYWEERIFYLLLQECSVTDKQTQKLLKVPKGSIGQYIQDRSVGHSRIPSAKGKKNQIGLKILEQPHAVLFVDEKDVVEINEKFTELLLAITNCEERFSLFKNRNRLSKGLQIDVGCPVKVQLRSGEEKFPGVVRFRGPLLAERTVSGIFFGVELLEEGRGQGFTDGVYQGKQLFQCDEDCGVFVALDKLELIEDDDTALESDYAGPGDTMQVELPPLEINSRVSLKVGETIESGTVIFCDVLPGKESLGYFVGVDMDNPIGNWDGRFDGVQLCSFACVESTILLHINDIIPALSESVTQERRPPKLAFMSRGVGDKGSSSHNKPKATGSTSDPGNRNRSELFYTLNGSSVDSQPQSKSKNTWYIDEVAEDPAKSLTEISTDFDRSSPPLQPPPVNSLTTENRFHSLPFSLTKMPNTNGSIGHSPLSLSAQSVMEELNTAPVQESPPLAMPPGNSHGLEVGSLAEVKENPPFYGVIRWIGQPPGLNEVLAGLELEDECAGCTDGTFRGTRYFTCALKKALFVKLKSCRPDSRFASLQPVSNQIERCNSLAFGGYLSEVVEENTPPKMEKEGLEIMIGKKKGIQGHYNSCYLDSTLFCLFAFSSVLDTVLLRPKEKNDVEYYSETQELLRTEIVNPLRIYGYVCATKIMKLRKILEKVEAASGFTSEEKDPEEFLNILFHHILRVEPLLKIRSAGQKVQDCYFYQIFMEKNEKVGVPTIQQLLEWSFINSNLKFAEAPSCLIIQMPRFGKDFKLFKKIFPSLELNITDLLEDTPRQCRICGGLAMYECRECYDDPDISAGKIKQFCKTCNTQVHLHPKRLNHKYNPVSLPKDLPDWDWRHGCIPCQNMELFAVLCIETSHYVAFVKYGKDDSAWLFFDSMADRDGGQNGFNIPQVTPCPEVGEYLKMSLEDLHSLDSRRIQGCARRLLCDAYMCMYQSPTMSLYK
# assayOverview: peptide SPOT array alanine scanning
# testContext: chain shown with the change;; parent: est. 0; read off a plot
Please provide measured other: signal change (%) for the entries that follow.
Write the figure, then the unit, nothing else.

Look at this binder and give its reported other: signal change (%). PDAELQRAEQEAERRR [RBM25_(558-573) peptide, P49756 M565A] -90%

Proceed to PDAELARMEQEAERRR [RBM25_(558-573) peptide, P49756 Q563A] -35%

Next entry: PDAELQRMAQEAERRR [RBM25_(558-573) peptide, P49756 E566A] -15%

Now the same for PDAELQAMEQEAERRR [RBM25_(558-573) peptide, P49756 R564A] -65%

Okay, and PDAELQRMEQAAERRR [RBM25_(558-573) peptide, P49756 E568A] ? -15%

Okay, and PDAELQRMEAEAERRR [RBM25_(558-573) peptide, P49756 Q567A] ? -25%

Now try PDAELQRMEQEAERAR [RBM25_(558-573) peptide, P49756 R572A] . -95%
